Data origin, for the record: patent US20210269480A1

Target: T1, human Nectin-4 (human, UniProt Q96NY8 32-349)
T1 construct: a Gly32-Ser349 FLAG construct is described only under the SPR assay; also called PVRL4
T1 sequence (looked up): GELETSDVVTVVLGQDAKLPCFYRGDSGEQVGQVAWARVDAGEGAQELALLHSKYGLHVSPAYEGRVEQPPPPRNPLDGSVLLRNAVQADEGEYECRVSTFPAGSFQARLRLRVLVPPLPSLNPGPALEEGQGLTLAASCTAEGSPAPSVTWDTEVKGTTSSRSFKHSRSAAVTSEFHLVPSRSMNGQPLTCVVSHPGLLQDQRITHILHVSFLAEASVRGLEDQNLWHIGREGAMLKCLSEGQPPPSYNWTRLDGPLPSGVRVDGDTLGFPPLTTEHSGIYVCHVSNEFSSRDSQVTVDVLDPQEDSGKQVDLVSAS
Assay protocol: FP competition, tracer SEQ ID NO 217
Method: Peptides were diluted to an appropriate concentration in assay buffer as described in the direct binding assay with a maximum of 5% DMSO, then serially diluted 1 in 2. […] Measurements were conducted as for the direct binding assay, however the gain was determined prior to the first measurement. Data analysis was in Systat Sigmaplot version 12.0 where the mP values were fit to a user defined cubic equation to generate a Ki value: […]
*1 amine or outer side, *2 acyl side, *3 side chain or, on linkers, in order; H or OH if unused. Bridges are numbered along the chain shown (N, C = ends). Where no end group is shown, it is not given here. [ ]: non-standard residue; d: D form. TATA = O=C(CC[*:1])N1CN(C(=O)CC[*:2])CN(C(=O)CC[*:3])C1; 1Nal = N[C@@H](Cc1cccc2ccccc12)C(=O)O; 2Nal = N[C@@H](Cc1ccc2ccccc2c1)C(=O)O; hArg = N=C(N)NCCCC[C@H](N)C(=O)O; NMeN = CN[C@@H](CC(N)=O)C(=O)O; βAla = NCCC(=O)O; Sar = CNCC(=O)O
Recorded Ki values for a group of binders are listed next.
Answer format: numeric, nM implied, no suffix.

For orientation, consider the following solved cases.
Binder	Ki (nM)
Ac-CPF[dD]CM[hArg][NMeN]WSTPIWC (linker 1-5-15 via TATA) [BCY8154]	8
Ac-CP[1Nal][dD]CM[hArg]DWSTPIWC (linker 1-5-15 via TATA) [BCY8127]	2.4
Ac-CP[1Nal][dD]CL[hArg]DWSTPIWC (linker 1-5-15 via TATA) [BCY8211]	4.5
ACPFGCMKNWSWPIWCANK (linker 2-6-16 via TATA, also called 80-09-02-T01-N016) [BCY7346]	64.9
[βAla][Sar][Sar][Sar][Sar][Sar]CPF[dD]CM[hArg]NWSWPIWC (linker 7-11-21 via TATA) [BCY7556]	26.1

Form field Ki, entry Ac-CPFGCMKNWSWPI[2Nal]C (linker 1-5-15 via TATA) [BCY7667] : 27.3

Form field Ki, entry Ac-CPFGCMKNWSDPIWC (linker 1-5-15 via TATA, also called 80-09-02-N022) [BCY7540] : 357

Form field Ki, entry HDSCPFGCM[hArg]SWSWPIWCA (linker 4-8-18 via TATA) [BCY7275] : 43.3
